System: Methylobacterium sp. (CRL-26, NRRL-B-11,208)
PROTOCOL NOTES: n-alkanes to secondary alcohols by cell suspensions (Table XVI)
Format: cell-based
CONDITION: Growth Substrate Methane
Excerpt: Both cell suspensions (particulate fraction) and cell-free particulate fraction of methane-grown methylotroph microorganisms are capable of catalyzing the conversion of C3 -C6 n-alkanes to the corresponding alcohols including secondary alcohols. The conditions for preparing the cell suspensions or the cell-free particulate fractions from methane-grown methylotroph microorganisms is the same as described above. […]
# Conversion Rate, n-alkane to corresponding secondary alcohol per record follows
Give the number; μmoles/hr/^5 mg. protein is assumed, so skip it.

The examples below pair each entry with its known result.
COMPOUND	VALUE
CCC [n-Propane, n-propane]	1.4
CCCCC [n-Pentane, n-pentane]	0.01
CCCCCC [n-Hexane, n-hexane]	0.007

Pending compound:
INPUT: With Methylobacterium sp. (CRL-26, NRRL-B-11,208) as the test system, provide measured Conversion Rate, n-alkane to corresponding secondary alcohol for this compound: CCCC [n-Butane, n-butane]
OUTPUT: 0.80

* * *

# Conversion Rate, sec-alcohol to corresponding ketone per record follows
Test system: Candida utilis ATCC 26387
PROTOCOL NOTES: sec-alcohols to ketones by cell suspensions of yeasts
Assay type: cell-based
CONDITION: Growth Substrate Methylamine

The examples below pair each entry with its known result.
COMPOUND	SYSTEM	VALUE
CCCC(C)O (stereo not shown) [2-Pentanol, 2-pentanol]	Candida utilis ATCC 26387	1.2 μmoles/hr/mg of protein
CCC(C)O (stereo not shown) [2-Butanol, 2-butanol]	Candida utilis ATCC 26387	5.0 μmoles/hr/mg of protein
CCCCC(C)O (stereo not shown) [2-Hexanol, 2-hexanol]	Candida utilis ATCC 26387	0.61 μmoles/hr/mg of protein

INPUT: With Candida utilis ATCC 26387 as the test system, provide measured Conversion Rate, sec-alcohol to corresponding ketone for this compound: CC(C)O [2-Propanol, 2-propanol]
OUTPUT: 5.0 μmoles/hr/mg of protein

* * *

Tested on: Methylomonas methanica S1 (NRRL B-11,199)
PROTOCOL NOTES: sec-alcohols to ketones by resting cell suspensions
Format: cell-based
CONDITION: cells grown on methanol
# Conversion Rates, sec-alcohol to corresponding ketone per record follows
Give the number; μn moles/hr/mg protein is assumed, so skip it.

MOLECULE	VALUE
CCCCC(C)O (stereo not shown)	0.04
CC(C)O	0.35
CCCC(C)O (stereo not shown)	0.45

Pending molecule:
INPUT: Consider the molecule CCC(C)O (stereo not shown) . State its measured Conversion Rates, sec-alcohol to corresponding ketone.
OUTPUT: 0.40

* * *

Tested on: Methylocystis parvus OBBP (NRRL B-11,198)
PROTOCOL NOTES: sec-alcohols to ketones by resting cell suspensions
Assay type: cell-based
CONDITION: cells grown on methanol
# Conversion Rates, sec-alcohol to corresponding ketone per record follows
Give the number; μn moles/hr/mg protein is assumed, so skip it.

The examples below pair each entry with its known result.
MOLECULE	VALUE
CC(C)O	0.25
CCCC(C)O (stereo not shown)	0.82

INPUT: With Methylocystis parvus OBBP (NRRL B-11,198) as the test system, provide measured Conversion Rates, sec-alcohol to corresponding ketone for this molecule: CCC(C)O (stereo not shown)
OUTPUT: 1.0

INPUT: With Methylocystis parvus OBBP (NRRL B-11,198) as the test system, provide measured Conversion Rates, sec-alcohol to corresponding ketone for this molecule: CCCCC(C)O (stereo not shown)
OUTPUT: 0.05

* * *

Test system: cell extracts (NAD+-dependent secondary alcohol dehydrogenase)
PROTOCOL NOTES: sec-alcohols to methyl ketones by cell extracts of yeasts, gas chromatography
Type: biochemical, Hansenula polymorpha ATCC 26,012
CONDITION: grown on methanol
# Conversion Rate, sec-alcohol to methyl ketone per record follows
Give the number; μmoles/hr/mg Protein is assumed, so skip it.

The examples below pair each entry with its known result.
COMPOUND	UNIT TAG	VALUE
CCCC(C)O (stereo not shown) [2-Pentanol, 2-pentanol]	μmoles/hr/mg Protein	1.0
CCC(C)O (stereo not shown) [2-Butanol, 2-butanol]	μmoles/hr/mg Protein	5.2
CCCCC(C)O (stereo not shown) [2-Hexanol, 2-hexanol]	μmoles/hr/mg Protein	0.51

INPUT: With cell extracts (NAD+-dependent secondary alcohol dehydrogenase) as the test system, provide measured Conversion Rate, sec-alcohol to methyl ketone for this compound: CC(C)O [2-Propanol, 2-propanol]
OUTPUT: 4.8

* * *

System: Methylobacter capsulatus Y (NRRL B-11,201)
PROTOCOL NOTES: sec-alcohols to ketones by resting cell suspensions
Format: cell-based
CONDITION: cells grown on methanol
ASSAY ENDPOINT: Conversion Rates, sec-alcohol to corresponding ketone (μn moles/hr/mg protein)
Give the number; μn moles/hr/mg protein is assumed, so skip it.

The examples below pair each entry with its known result.
COMPOUND	SYSTEM	UNIT TAG	VALUE
CCCCC(C)O (stereo not shown) [2-Hexanol, 2-hexanol]	Methylobacter capsulatus Y (NRRL B-11,201)	μn moles/hr/mg protein	0.12
CCCC(C)O (stereo not shown) [2-Pentanol, 2-pentanol]	Methylobacter capsulatus Y (NRRL B-11,201)	μn moles/hr/mg protein	0.60
CC(C)O [2-Propanol, 2-propanol]	Methylobacter capsulatus Y (NRRL B-11,201)	μn moles/hr/mg protein	0.52

INPUT: Consider the compound CCC(C)O (stereo not shown) [2-Butanol, 2-butanol] . State its measured Conversion Rates, sec-alcohol to corresponding ketone.
OUTPUT: 1.5

* * *

Test system: purified secondary alcohol dehydrogenase
PROTOCOL NOTES: substrate specificity, electron acceptor and stoichiometry of purified yeast SADH
CONDITION: examined spectrophotometrically
ASSAY ENDPOINT: oxidation by the purified yeast secondary alcohol dehydrogenase

The examples below pair each entry with its known result.
COMPOUND	VALUE
CCCCO	not oxidized
CCCCCCC(C)O (centres unmarked)	not oxidized
CCCO	not oxidized
CCCC(C)O (centres unmarked)	catalyzed the oxidation
CCCCC(C)O (centres unmarked)	catalyzed the oxidation

INPUT: With purified secondary alcohol dehydrogenase as the test system, provide measured oxidation by the purified yeast secondary alcohol dehydrogenase for this compound: CCCCCC(C)O (centres unmarked)
OUTPUT: not oxidized

INPUT: With purified secondary alcohol dehydrogenase as the test system, provide measured oxidation by the purified yeast secondary alcohol dehydrogenase for this compound: CC(O)CCO (centres unmarked)
OUTPUT: not oxidized

* * *

# Conversion Rates, sec-alcohol to corresponding ketone per record follows
System: Pseudomonas sp. ATCC 21438 (Facultative)
PROTOCOL NOTES: sec-alcohols to ketones by resting cell suspensions
Format: cell-based
CONDITION: methylamine-grown cells
Give the number; μmoles/hr/mg protein is assumed, so skip it.

INPUT: Consider the molecule CC(C)O . State its measured Conversion Rates, sec-alcohol to corresponding ketone.
OUTPUT: 1.0

* * *

System: Methylobacter capsulatus Y (NRRL B-11,201)
PROTOCOL NOTES: n-alkanes to methyl ketones by resting cell suspensions (Table I)
Type: cell-based
CONDITION: cells grown on methane; 30° C.
# Conversion Rates, n-alkane to corresponding methyl ketone per record follows
Give the number; μmoles/hr/mg protein is assumed, so skip it.

1) CCCCC 0.63
2) CCCC 1.1
3) CCC 1.6

Pending compound:
INPUT: With Methylobacter capsulatus Y (NRRL B-11,201) as the test system, provide measured Conversion Rates, n-alkane to corresponding methyl ketone for this compound: CCCCCC
OUTPUT: 0.07

* * *

System: cell extracts (NAD+-dependent secondary alcohol dehydrogenase)
PROTOCOL NOTES: sec-alcohols to methyl ketones by cell extracts of yeasts, gas chromatography
Format: biochemical, Kloeckera sp. strain A2 NRRL-Y-11,420
CONDITION: grown on methanol
ASSAY ENDPOINT: Conversion Rate, sec-alcohol to methyl ketone (μmoles/hr/mg Protein)
Give the number; μmoles/hr/mg Protein is assumed, so skip it.

The examples below pair each entry with its known result.
COMPOUND	UNIT TAG	VALUE
CCCCC(C)O (stereo not shown)	μmoles/hr/mg Protein	0.25
CCCC(C)O (stereo not shown)	μmoles/hr/mg Protein	1.2

INPUT: With cell extracts (NAD+-dependent secondary alcohol dehydrogenase) as the test system, provide measured Conversion Rate, sec-alcohol to methyl ketone for this compound: CCC(C)O (stereo not shown)
OUTPUT: 5.9

INPUT: With cell extracts (NAD+-dependent secondary alcohol dehydrogenase) as the test system, provide measured Conversion Rate, sec-alcohol to methyl ketone for this compound: CC(C)O
OUTPUT: 4.8

* * *

# Conversion Rate, sec-alcohol to methyl ketone per record follows
Test system: cell extracts (NAD+-dependent secondary alcohol dehydrogenase)
PROTOCOL NOTES: sec-alcohols to methyl ketones by cell extracts of yeasts, gas chromatography
Assay type: biochemical, Pichia sp. NRRL-Y-11,328
CONDITION: grown on methanol
Give the number; μmoles/hr/mg Protein is assumed, so skip it.

The examples below pair each entry with its known result.
COMPOUND	UNIT TAG	VALUE
CC(C)O	μmoles/hr/mg Protein	5.5
CCC(C)O (stereo not shown)	μmoles/hr/mg Protein	6.2
CCCC(C)O (stereo not shown)	μmoles/hr/mg Protein	1.2

Pending compound:
INPUT: Consider the compound CCCCC(C)O (stereo not shown) . State its measured Conversion Rate, sec-alcohol to methyl ketone.
OUTPUT: 0.60
